All figures here come from PubChem BioAssay (NCI).

Reported TGI values for a set of molecules
# Test system: A549 NSCLC
# assay: NCI tumour cell line growth inhibition, 48 h
test.readout: TGI

[[record]]
molecule = "CN=C1CC2c3cc(OC)c(OC)cc3CCN2C2=C1C(=O)CC(C)(C)C2 (configuration not stated)"
test_readout = "TGI"
result = "> 100 µM"

[[record]]
molecule = "COc1ccc(C(OCC2OC(n3cc(C)c(=O)[nH]c3=O)CC2n2cc(Cn3cc(Cl)c(=O)[nH]c3=O)nn2)(c2ccccc2)c2ccccc2)cc1 (configuration not stated)"
test_readout = "TGI"
result = "> 100 µM"

[[record]]
molecule = "O=C(O)Cc1cc(Cl)ccc1O"
test_readout = "TGI"
result = "> 100 µM"

[[record]]
molecule = "C/C=C(/C)C(=O)O[C@@H]1CCN2CC[C@H](COC(=O)/C(=C/C)CO)C12 (some centres not stated)"
test_readout = "TGI"
result = "> 100 µM"

[[record]]
molecule = "CN(C)C1(N(C)C)Oc2c(c(=O)n(C)c(=O)n2C)C(c2ccccc2)C1(F)F (configuration not stated)"
test_readout = "TGI"
result = "> 100 µM"

[[record]]
molecule = "O=[N+]([O-])c1ccc2c(c1)C1=C(CO2)Cc2ccccc2O1"
test_readout = "TGI"
result = "> 100 µM"

[[record]]
molecule = "COC(=O)c1ccccc1/C=C1\\Cc2ccc(C)c(C)c2C1=O"
test_readout = "TGI"
result = "> 100 µM"

[[record]]
molecule = "O=c1[nH]nc(Cc2ccccc2)n1/N=C/c1ccccc1O"
test_readout = "TGI"
result = "> 100 µM"

[[record]]
molecule = "Clc1ccc2[nH]cc(-c3nnnn3-c3ccccc3)c2c1"
test_readout = "TGI"
result = "> 100 µM"

[[record]]
molecule = "COc1cc(-n2cc(-c3ccc(F)cc3)[nH]c2=O)cc(OC)c1OC"
test_readout = "TGI"
result = "> 100 µM"

[[record]]
molecule = "CC(=O)c1[nH]c(NCc2ccccc2)c(C(=S)Nc2ccccc2)c1N"
test_readout = "TGI"
result = "93.9 µM"

[[record]]
molecule = "O=[N+]([O-])/C(C(Cl)=C(Cl)Cl)=C(/Cl)Sc1ccccc1"
test_readout = "TGI"
result = "13.5 µM"

[[record]]
molecule = "Clc1ccc(C2C3COc4ccccc4C3=NN2c2ccccc2)cc1 (configuration not stated)"
test_readout = "TGI"
result = "> 100 µM"

[[record]]
molecule = "CN1C2CCC1CC(=CCOC(c1ccc(F)cc1)c1ccc(F)cc1)C2"
test_readout = "TGI"
result = "32.4 µM"

[[record]]
molecule = "O=C(Nc1nc(=S)c2c(ncn2CCOC(=O)c2ccccc2)[nH]1)c1ccccc1"
test_readout = "TGI"
result = "> 100 µM"

[[record]]
molecule = "N#CCCN(C(=O)Nc1ccccc1)[C@H]1CCCC[C@@H]1N(C(=O)Nc1ccccc1)c1ccccc1"
test_readout = "TGI"
result = "> 100 µM"

[[record]]
molecule = "O=C1OCC2=C1C(c1cccc(Br)c1)c1cc3c(cc1N2CCO)CCC3 (configuration not stated)"
test_readout = "TGI"
result = "5.54 µM"

[[record]]
molecule = "N#C/C1=C(\\N)CCSSSC1"
test_readout = "TGI"
result = "> 100 µM"

[[record]]
molecule = "CCSc1ncnc2c1ncn2C1OC(CO)C(O)C1O (configuration not stated)"
test_readout = "TGI"
result = "> 60.2 µM"

[[record]]
molecule = "Cn1cc(-c2csc(-c3c[nH]c4ccc(F)cc34)n2)c2cnccc21"
test_readout = "TGI"
result = "3.42 µM"

[[record]]
molecule = "O=C(Nc1ccncc1)C(=O)c1cn(S(=O)(=O)c2ccc(F)cc2)c2ccccc12"
test_readout = "TGI"
result = "> 100 µM"

[[record]]
molecule = "S=c1sc2c(Cl)nc(Cl)nc2n1-c1ccccc1"
test_readout = "TGI"
result = "> 100 µM"

[[record]]
molecule = "COc1ccc(/C=C2\\N=C(SC)N(CN3CCOCC3)C2=O)cc1"
test_readout = "TGI"
result = "> 100 µM"

[[record]]
molecule = "CC(C)Oc1ccc2cc(-c3nn(CC4CCNCC4)c4ncnc(N)c34)ccc2c1"
test_readout = "TGI"
result = "28.3 µM"

[[record]]
molecule = "COC(=O)C(Cc1nc2ccc(Cl)cc2[nH]c1=O)/C(=N\\N)C(=O)Nc1cc(C)c(Cl)cc1S(=O)(=O)O (configuration not stated)"
test_readout = "TGI"
result = "> 100 µM"

[[record]]
molecule = "O=C(Oc1ccccn1)c1cc2cc(CCl)ccc2oc1=O"
test_readout = "TGI"
result = "> 100 µM"

[[record]]
molecule = "C[C@@H]1CC[C@@H]2[C@@H]1[C@H](OC(=O)/C=C/c1ccccc1)[C@]1(C3CCCCC3)C[C@@H](OC(=O)CO)[C@@]2(C)O1"
test_readout = "TGI"
result = "14.1 µM"

[[record]]
molecule = "CCOC(=O)C(=[N+]=[N-])[Si](C)(C)C"
test_readout = "TGI"
result = "> 100 µM"

[[record]]
molecule = "CCOC(=O)CC[C@H](NC(=O)[C@H](N)Cc1ccc(N(CCCl)CCCl)cc1)C(=O)OCC"
test_readout = "TGI"
result = "> 100 µM"

[[record]]
molecule = "Cc1ccc(/C=C/C(=O)c2sc(-c3nc(C)c(C(=O)/C=C/c4ccc(C)cc4)s3)nc2C)cc1"
test_readout = "TGI"
result = "> 100 µM"

[[record]]
molecule = "CC12CP(=O)(c3ccccc3)CC1C2(Cl)Cl (configuration not stated)"
test_readout = "TGI"
result = "> 100 µM"

[[record]]
molecule = "CCC[CH2][Sn]([Cl])([CH2]CCC)[CH2]CCC"
test_readout = "TGI"
result = "0.32 µM"

[[record]]
molecule = "O=C1Nc2ccccc2/C1=N\\[O-].O=C1Nc2ccccc2/C1=N\\[O-].[Cu+2]"
test_readout = "TGI"
result = "> 100 µM"

[[record]]
molecule = "CC1(CCOCc2ccccc2)NC(=O)NC1=O (configuration not stated)"
test_readout = "TGI"
result = "> 100 µM"

[[record]]
molecule = "OCC1OC(c2nc(C3=NCCCN3)cs2)C(O)C1O (configuration not stated)"
test_readout = "TGI"
result = "> 100 µM"

[[record]]
molecule = "COc1cc2c(c(OC)c1OC)-c1ccc(SC)c(=O)cc1C(NC=O)CC2 (configuration not stated)"
test_readout = "TGI"
result = "> 83.4 µM"

[[record]]
molecule = "O=C(c1ccccc1)c1cc2ccccc2o1"
test_readout = "TGI"
result = "> 100 µM"

[[record]]
molecule = "Cn1cc(NC(=O)Nc2cc(C(=O)Nc3cc(C(=O)Nc4ccc(S(=O)(=O)O)c5cc(S(=O)(=O)O)ccc45)n(C)c3)n(C)c2)cc1C(=O)Nc1cc(C(=O)Nc2ccc(S(=O)(=O)O)c3cc(S(=O)(=O)O)ccc23)n(C)c1"
test_readout = "TGI"
result = "> 100 µM"

[[record]]
molecule = "C#C[C@]1(O)CCC2C3CCc4cc(O)ccc4C3CC[C@@]21C (some centres not stated)"
test_readout = "TGI"
result = "> 100 µM"

[[record]]
molecule = "CC1CN(C(=O)CN2CCC(CCCCN(C)C)CC2)c2ccccc2NC1=O (configuration not stated)"
test_readout = "TGI"
result = "> 100 µM"

[[record]]
molecule = "CCCCNC(=S)Nc1nc(C(=O)NNC(=S)Nc2ccccc2)cs1"
test_readout = "TGI"
result = "> 100 µM"

[[record]]
molecule = "COC(=O)/C=C(\\C)CC(O)/C=C(\\C)CCC=C(C)C (configuration not stated)"
test_readout = "TGI"
result = "> 100 µM"


* * *

# Tested on: OVCAR-3 ovarian
# assay: NCI tumour cell line growth inhibition, 48 h; in the data active = GI50 below about 0.43 µM; inactive = the rest
Outcome codes: YES (active), NO (inactive)

[[record]]
substance_smiles = "NCCNc1c2c(c(NCCN)c3[nH]ccc13)C(=O)c1ccccc1C2=O"
cat = "YES"

[[record]]
substance_smiles = "COc1ccc(/C=C2/N=C(c3ccccc3)N(c3c(C)n(C)n(-c4ccccc4)c3=O)C2=O)cc1OC"
cat = "NO"

[[record]]
substance_smiles = "O=C1/C(=C/c2cccc(Cl)c2Cl)N=C(c2ccccc2)N1C1CC1"
cat = "NO"

[[record]]
substance_smiles = "COc1cc(Cn2c(-c3ccccc3)c(Cl)c3c2-c2oncc2CC3)cc(OC)c1"
cat = "NO"

[[record]]
substance_smiles = "CN(C)CC[PH+](c1ccccc1)c1ccccc1.CN(C)CC[PH+](c1ccccc1)c1ccccc1.[Cl-].[Pd+2]"
cat = "NO"

[[record]]
substance_smiles = "Nc1nc(/C=C\\c2ccc([N+](=O)[O-])s2)nc(N2CCCC2)n1"
cat = "NO"

[[record]]
substance_smiles = "COc1cc2c3c(n(C)c(=O)c2cc1OC)-c1cc2c(cc1/C3=C\\CN)OCO2"
cat = "NO"

[[record]]
substance_smiles = "O=C1C=CC(=O)c2cc3cc(CBr)ccc3cc21"
cat = "NO"

